The entries below are paired with their reported IC50.
# Test system: 186277-243-T-J2-PDC complex spheroid viability
# Test details: Anticancer human tumor 186277-243-T-J2-PDC patient-derived colon adenocarcinoma cell line growth inhibition [GQUAD]
# Run parameters: curve of first compound; second compound 0.1 µM

Query: # query: IC50 of entry CC[C@@]1(O)C(=O)OCc2c1cc1n(c2=O)Cc2cc3c(CN(C)C)c(O)ccc3nc2-1 + Cc1cnc(CNC(=O)c2c(=O)c3ccc(N4CCCN(C)CC4)nc3n3c2sc2ccccc23)cn1
Result: 263 nM

* * *

# Tested on: 186277-243-T-J2-PDC complex spheroid viability
# Test details: Anticancer human tumor 186277-243-T-J2-PDC cell line growth inhibition [GQUAD];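 also: spheroids exposed to drugs for 7 days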;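 as to viability, T/C: 100% = DMSO vehicle control viability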
# Run parameters: second compound 0.1 µM; first compound 0.0316 µM; stronger effect = lower value
The entries below are paired with their reported viability, T/C.
Provide only the numeric value, understood in %.

CC1COCCN1c1cc(C2(S(C)(=N)=O)CC2)nc(-c2ccnc3[nH]ccc23)n1 (centres undefined) + CN(C)c1ccc(Nc2c3ccc(NC(=O)CCN4CCCC4)cc3nc3cc(NC(=O)CCN4CCCC4)ccc23)cc1 | 105
CC(C)n1c(=O)n(C)c2cnc3cc(F)c(-c4ccc(OCCCN5CCCCC5)nc4)cc3c21 + CN(C)c1ccc(Nc2c3ccc(NC(=O)CCN4CCCC4)cc3nc3cc(NC(=O)CCN4CCCC4)ccc23)cc1 | 110

Query: // map CC(=O)O[C@H]1C(=O)[C@@]2(C)[C@H]([C@H](OC(=O)c3ccccc3)[C@]3(O)C[C@H](OC(=O)[C@H](O)[C@@H](NC(=O)c4ccccc4)c4ccccc4)C(C)=C1C3(C)C)[C@]1(OC(C)=O)CO[C@@H]1C[C@@H]2O + CN(C)c1ccc(Nc2c3ccc(NC(=O)CCN4CCCC4)cc3nc3cc(NC(=O)CCN4CCCC4)ccc23)cc1 to recorded viability, T/C (system: 186277-243-T-J2-PDC complex spheroid viability)
Result: 18.9

Query: // map O=C(c1cc(Cc2n[nH]c(=O)c3ccccc23)ccc1F)N1CCN(C(=O)C2CC2)CC1 + Cc1[nH]c2ccc(F)cc2c1-c1nc2c3cccnc3c3ncccc3c2[nH]1 to recorded viability, T/C (system: 186277-243-T-J2-PDC complex spheroid viability)
Result: 93.2

* * *

The entries below are paired with their reported IC50.
# Tested on: 186277-243-T-J2-PDC complex spheroid viability
# Test details: Anticancer human tumor 186277-243-T-J2-PDC cell line growth inhibition [GQUAD];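 also: spheroids exposed to drugs for 7 days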
# Run parameters: curve of first compound; second compound 1 µM

Illustrative cases are given below, each with its answer.
Cc1cccc(N(C)C(=O)C2C(O)CCN2c2nc(C)cc(C(F)(F)F)c2C#N)c1 (stereo unspecified) + Cc1[nH]c2ccc(F)cc2c1-c1nc2c3cccnc3c3ncccc3c2[nH]1 | > 10000 nM
C#Cc1c(F)ccc2cc(O)cc(-c3ncc4c(N5CC6CCC(C5)N6)nc(OCC56CCCN5CC(F)C6)nc4c3F)c12 (stereo unspecified) + Cc1[nH]c2ccc(F)cc2c1-c1nc2c3cccnc3c3ncccc3c2[nH]1 | 61.3 nM
O=C(c1cc(Cc2n[nH]c(=O)c3ccccc23)ccc1F)N1CCN(C(=O)C2CC2)CC1 + Cc1cnc(CNC(=O)c2c(=O)c3ccc(N4CCCN(C)CC4)nc3n3c2sc2ccccc23)cn1 | < 31.6 nM

Query: # query: IC50 of entry COc1ncnc(C2CC2)c1-c1ncc2cnn(Cc3ccc(-c4nc(C(F)(F)F)cn4C(C)C)cc3)c2n1 + Cc1[nH]c2ccc(F)cc2c1-c1nc2c3cccnc3c3ncccc3c2[nH]1
Result: > 10000 nM

Query: # query: IC50 of entry CC(C)(O)C1CCC(Nc2ccc3ncc(-c4cccc(C(F)(F)F)c4)n3n2)CC1 (stereo unspecified) + Cc1cnc(CNC(=O)c2c(=O)c3ccc(N4CCCN(C)CC4)nc3n3c2sc2ccccc23)cn1
Result: < 31.6 nM

Query: # query: IC50 of entry CCCS(=O)(=O)Nc1ccc(F)c(C(=O)c2c[nH]c3ncc(-c4ccc(Cl)cc4)cc23)c1F + Cc1cnc(CNC(=O)c2c(=O)c3ccc(N4CCCN(C)CC4)nc3n3c2sc2ccccc23)cn1
Result: < 31.6 nM

Query: # query: IC50 of entry O=C(NO)c1cnc(N2CCN(S(=O)(=O)c3ccc4ccccc4c3)CC2)nc1 + Cc1cnc(CNC(=O)c2c(=O)c3ccc(N4CCCN(C)CC4)nc3n3c2sc2ccccc23)cn1
Result: < 31.6 nM

Query: # query: IC50 of entry CCc1c2c(nc3ccc(O)cc13)-c1cc3c(c(=O)n1C2)COC(=O)[C@]3(O)CC + Cc1[nH]c2ccc(F)cc2c1-c1nc2c3cccnc3c3ncccc3c2[nH]1
Result: 11.3 nM

Query: # query: IC50 of entry C=CC(=O)N1CCN(c2nc(=O)n(-c3c(C)ccnc3C(C)C)c3nc(-c4c(O)cccc4F)c(F)cc23)C(C)C1 (stereo unspecified) + Cc1cnc(CNC(=O)c2c(=O)c3ccc(N4CCCN(C)CC4)nc3n3c2sc2ccccc23)cn1
Result: > 10000 nM

Query: # query: IC50 of entry CC1COCCN1c1cc(C2(O)CC3CCC(C2)O3)c2cnn(-c3ccn[nH]3)c2n1 (stereo unspecified) + Cc1cnc(CNC(=O)c2c(=O)c3ccc(N4CCCN(C)CC4)nc3n3c2sc2ccccc23)cn1
Result: < 31.6 nM

Query: # query: IC50 of entry Nc1ccn(C2OC(CO)C(O)C2(F)F)c(=O)n1 (stereo unspecified) + Cc1[nH]c2ccc(F)cc2c1-c1nc2c3cccnc3c3ncccc3c2[nH]1
Result: < 31.6 nM

Query: # query: IC50 of entry O=c1[nH]cc(F)c(=O)[nH]1 + Cc1cnc(CNC(=O)c2c(=O)c3ccc(N4CCCN(C)CC4)nc3n3c2sc2ccccc23)cn1
Result: < 31.6 nM

These measurements were taken from PubChem BioAssay AID2060512.
